# Measured target: T1, recombinant human CD3 epsilon/gamma heterodimer (human, UniProt P07766 23-126; P09693 23-116)
# T1 construct: Recombinant protein in solution (200-50 nM) in the Octet assay; also called hCD3 E/G
# T1 sequence (P07766 23-126, chain 1 of 2): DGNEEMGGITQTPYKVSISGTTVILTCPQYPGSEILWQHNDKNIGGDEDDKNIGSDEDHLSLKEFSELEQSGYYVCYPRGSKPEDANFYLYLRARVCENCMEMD
# T1 sequence (P09693 23-116, chain 2 of 2): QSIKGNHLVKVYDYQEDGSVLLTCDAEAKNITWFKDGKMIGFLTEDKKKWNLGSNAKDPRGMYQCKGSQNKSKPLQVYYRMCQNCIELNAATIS
# Experiment: Octet BLI, mAb on FAB2G sensor, hCD3 E/G 200-50 nM; R^2 0.99
Value kind: Response

Binder	Numeric result
ABL-CD3-47 (antibody, V domains shown, Chimeric hybridoma mAb: human V, CH1, upper hinge; mouse middle hinge, CH2, CH3) VH: EVQLVESGGGLVQPGGSLRLSCAASGFTFSRYSMNWVRQAPGKGLEWVSYISRSSTTIYYADSVKGRFTISRDNAKNSLYLQMNSLRDEDAAVYYCARERWELLYFDYWGQGTLVTVSS VL: NFMLTQPHSVSESPGKTVTISCTRSSGSIASKYVQWYQQRPGSSPTTVIYEDNQRPSGVPDRFSGSIDSSSNSASLTISGLKTEDEADYYCQSYYSNNRVFGGGTKLTVL	0.43
ABL-CD3-57 (antibody, V domains shown, Chimeric hybridoma mAb: human V, CH1, upper hinge; mouse middle hinge, CH2, CH3) VH: EVQLVESGGGLVKPGGSLRLSCAASGFTFSSYTMNWVRQAPGKGLEWVSSISTSSRYIYYTDSVKGRFTISRDDAKNSLYLQMNSLRAEDTAVYYCTRNWGYDVFDIWGQGTMVIVSS VL: QPVLTQPSSHSASSGASVRLTCMLSSGFSVGDFWIRWYQQKPGNPPRYLLYYHSDSNKGQGSGVPSRFSGSNDASANAGILRISGLQPEDEADYYCGTWHSNSKTQVFGGGTKLTVL	0.54
